tested on: HeLa; assay: Ratio of compound IC50 to cisplatin IC50 for human HeLa cells; assay type: functional

# compound, Ratio IC50
measured = [
    ("Cc1cc2c(c(O)c1-c1c(C)cc3c(c1O)/C(=C/NC1CC1)C(=O)C(O)=C3C(C)C)/C(=C/NC1CC1)C(=O)C(O)=C2C(C)C (stereo in doubt; 5b)", 1.07),
    ("COC(=O)[C@H](Cc1ccc(O)cc1)N/C=C1\\C(=O)C(O)=C(C(C)C)c2cc(C)c(-c3c(C)cc4c(c3O)/C(=C/N[C@@H](Cc3ccc(O)cc3)C(=O)OC)C(=O)C(O)=C4C(C)C)c(O)c21 (stereo in doubt; 8b)", 0.9),
    ("Cc1cc2c(c(O)c1-c1c(C)cc3c(c1O)/C(=C/NC(C)C)C(=O)C(O)=C3C(C)C)/C(=C/NC(C)C)C(=O)C(O)=C2C(C)C (stereo in doubt; 10a)", 1.88),
    ("Cc1cc2c(c(O)c1-c1c(C)cc3c(c1O)/C(=C/NC(C)C)C(=O)C(O)=C3C(C)C)/C(=C/NC(C)C)C(=O)C(O)=C2C(C)C (stereo in doubt; 10b)", 1.36),
    ("Cc1cc2c(c(O)c1-c1c(C)cc3c(c1O)/C(=C/Nc1ccc(Br)cc1)C(=O)C(O)=C3C(C)C)/C(=C/Nc1ccc(Br)cc1)C(=O)C(O)=C2C(C)C (stereo in doubt; 6a)", 5.85),
]
